- measured-on: LRRK2 kinase (Homo sapiens)
- Sequence (Q5S007 with tags, fused parts or gaps): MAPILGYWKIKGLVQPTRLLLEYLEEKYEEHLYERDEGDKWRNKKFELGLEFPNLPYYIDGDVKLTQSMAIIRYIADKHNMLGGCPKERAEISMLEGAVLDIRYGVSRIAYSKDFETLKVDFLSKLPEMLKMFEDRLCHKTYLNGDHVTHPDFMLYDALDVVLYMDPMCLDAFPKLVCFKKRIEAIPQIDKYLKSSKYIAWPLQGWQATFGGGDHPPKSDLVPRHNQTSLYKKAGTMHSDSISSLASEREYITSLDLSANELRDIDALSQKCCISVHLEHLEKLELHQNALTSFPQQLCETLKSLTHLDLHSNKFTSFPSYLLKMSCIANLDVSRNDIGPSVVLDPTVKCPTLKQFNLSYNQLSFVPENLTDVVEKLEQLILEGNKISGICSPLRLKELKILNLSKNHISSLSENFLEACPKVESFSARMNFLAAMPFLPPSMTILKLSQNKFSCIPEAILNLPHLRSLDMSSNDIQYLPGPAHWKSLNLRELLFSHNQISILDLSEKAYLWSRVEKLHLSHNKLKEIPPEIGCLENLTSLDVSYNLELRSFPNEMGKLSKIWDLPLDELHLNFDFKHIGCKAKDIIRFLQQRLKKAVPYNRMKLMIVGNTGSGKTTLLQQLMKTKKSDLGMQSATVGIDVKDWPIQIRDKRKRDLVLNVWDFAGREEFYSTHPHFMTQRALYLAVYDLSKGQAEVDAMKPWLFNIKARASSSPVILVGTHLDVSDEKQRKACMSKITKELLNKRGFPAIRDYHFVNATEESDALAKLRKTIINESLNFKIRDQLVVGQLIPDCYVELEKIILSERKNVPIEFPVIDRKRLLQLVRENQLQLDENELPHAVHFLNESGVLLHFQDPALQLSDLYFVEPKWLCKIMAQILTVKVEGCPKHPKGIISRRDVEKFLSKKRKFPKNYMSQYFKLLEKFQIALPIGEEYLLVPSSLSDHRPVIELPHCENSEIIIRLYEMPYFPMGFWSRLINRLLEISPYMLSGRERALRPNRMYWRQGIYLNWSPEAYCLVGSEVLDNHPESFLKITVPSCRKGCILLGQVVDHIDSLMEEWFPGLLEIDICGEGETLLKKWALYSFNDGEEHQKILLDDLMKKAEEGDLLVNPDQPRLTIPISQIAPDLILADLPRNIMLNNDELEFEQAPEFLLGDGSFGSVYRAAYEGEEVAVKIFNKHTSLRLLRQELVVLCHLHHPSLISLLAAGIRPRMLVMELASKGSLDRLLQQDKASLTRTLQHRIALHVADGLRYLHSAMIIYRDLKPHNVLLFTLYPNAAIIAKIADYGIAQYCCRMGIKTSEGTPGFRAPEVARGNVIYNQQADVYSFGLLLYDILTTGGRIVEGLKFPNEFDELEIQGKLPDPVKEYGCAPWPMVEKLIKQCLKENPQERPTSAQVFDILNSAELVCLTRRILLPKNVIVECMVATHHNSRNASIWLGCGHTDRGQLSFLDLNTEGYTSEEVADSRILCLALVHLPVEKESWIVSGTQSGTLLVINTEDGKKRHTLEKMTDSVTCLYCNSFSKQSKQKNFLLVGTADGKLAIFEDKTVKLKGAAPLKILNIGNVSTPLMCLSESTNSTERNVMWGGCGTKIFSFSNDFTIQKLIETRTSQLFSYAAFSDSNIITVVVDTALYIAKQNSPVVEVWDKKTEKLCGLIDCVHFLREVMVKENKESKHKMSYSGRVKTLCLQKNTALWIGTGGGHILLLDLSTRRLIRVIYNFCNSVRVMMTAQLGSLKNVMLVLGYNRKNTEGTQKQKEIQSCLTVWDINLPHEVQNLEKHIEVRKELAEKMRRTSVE
molecules and their reported IC50

In the examples that follow, each entry is paired with its recorded IC50.
* Cc1nn(C(C)(C)C(N)=O)cc1Nc1ncc(C(F)(F)F)c(NCCCNC(=O)C2CCC2)n1 [Example 26] | 1 to 100 nM
* Cc1cc(C2CCNCC2)ccc1Nc1ncc(Cl)c(NCCCN(C)C(=O)C2CCC2)n1 [Example 15] | 1 to 100 nM
* CC(C)c1cc(N2CCN(C)CC2)ccc1Nc1ncc(Br)c(NCCCNC(=O)C2CCC2)n1 [Example 8] | 600 to 20000 nM
* Cc1nn(C2CCNCC2)cc1Nc1ncc(C(F)(F)F)c(NCCCNC(=O)C2CCC2)n1 [Example 21] | 1 to 100 nM
* CC(C)Oc1cc(N2CCN(C)CC2)ccc1Nc1ncc(Cl)c(NCCCNC(=O)C2CCC2)n1 [Example 10] | 100 to 300 nM
* CN1CCN(c2ccc(Nc3ncc(Br)c(NCCCNC(=O)C4CCC4)n3)c(C3CC3)c2)CC1 [Example 9] | 100 to 300 nM
* Cc1cc(C2CCN(C)CC2)ccc1Nc1ncc(Cl)c(NCCCN(C)C(=O)C2CCC2)n1 [Example 17] | 1 to 100 nM

Moving on to the next molecule.
Requested field: IC50. Item: Cc1nn(C2CCN(CC(C)C)CC2)cc1Nc1ncc(C(F)(F)F)c(NCCCNC(=O)C2CCC2)n1 [Example 23] 1 to 100 nM

###

molecules and their reported pIC50
- measured-on: ULK1 kinase (Homo sapiens)
- Sequence (O75385 with tags, fused parts or gaps): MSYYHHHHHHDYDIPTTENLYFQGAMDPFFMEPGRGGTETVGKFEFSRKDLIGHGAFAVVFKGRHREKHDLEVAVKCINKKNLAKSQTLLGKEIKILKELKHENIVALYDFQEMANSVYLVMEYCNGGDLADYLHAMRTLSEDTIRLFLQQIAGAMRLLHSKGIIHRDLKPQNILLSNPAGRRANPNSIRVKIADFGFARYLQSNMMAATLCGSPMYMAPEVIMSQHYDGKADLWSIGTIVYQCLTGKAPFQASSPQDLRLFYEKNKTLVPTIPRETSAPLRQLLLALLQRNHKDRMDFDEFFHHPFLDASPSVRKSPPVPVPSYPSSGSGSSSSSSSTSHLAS
pIC50: −log10 of the molar value.

Requested field: pIC50. Item: `Cc1nn(C2CCNCC2)cc1Nc1ncc(C2CC2)c(NCCCNC(=O)C2CCC2)n1` 6.30 to 7.00

Queued: `Cc1cc(N2CCN(C)CC2)ccc1Nc1ncc(C(F)(F)F)c(NCCCNC(=O)C(C)(C)C)n1` 7.00 to 7.60

Queued: `Cc1nn(C2CCN(C)CC2)cc1Nc1ncc(C2CC2)c(NCCCNC(=O)C2CCC2)n1` 6.30 to 7.00

Queued: `Cc1cc(C2CCNCC2)ccc1Nc1ncc(Cl)c(NCCCN(C)C(=O)C2CCC2)n1` 6.30 to 7.00

###

pIC50: −log10 of the molar value.
pIC50 tested on ULK2 kinase (Homo sapiens): recorded values
Sequence (Q8IYT8 with tags, fused parts or gaps): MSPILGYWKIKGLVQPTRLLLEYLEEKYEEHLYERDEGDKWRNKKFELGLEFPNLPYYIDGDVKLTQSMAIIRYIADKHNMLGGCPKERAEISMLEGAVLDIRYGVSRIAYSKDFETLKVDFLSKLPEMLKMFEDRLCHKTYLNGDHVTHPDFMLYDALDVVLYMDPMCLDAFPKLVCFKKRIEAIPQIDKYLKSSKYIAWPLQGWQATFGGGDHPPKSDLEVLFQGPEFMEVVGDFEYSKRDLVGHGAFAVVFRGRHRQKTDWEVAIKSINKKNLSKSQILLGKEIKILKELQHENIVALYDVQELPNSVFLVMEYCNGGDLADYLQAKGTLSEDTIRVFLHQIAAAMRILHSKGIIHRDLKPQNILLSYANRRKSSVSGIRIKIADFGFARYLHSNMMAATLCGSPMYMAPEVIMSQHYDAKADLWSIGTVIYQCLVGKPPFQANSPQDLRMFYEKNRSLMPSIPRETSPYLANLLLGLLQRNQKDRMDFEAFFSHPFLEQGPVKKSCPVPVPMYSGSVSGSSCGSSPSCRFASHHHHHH

In the examples that follow, each entry is paired with its recorded pIC50.
- Cc1nn(C2CCN(C)CC2)cc1Nc1ncc(Cl)c(NCCCN(C)C(=O)C2CCC2)n1: 7.00 to 7.60
- CCc1cc(N2CCN(C)CC2)ccc1Nc1ncc(Br)c(NCCCNC(=O)C2CCC2)n1: 6.30 to 7.00
- Cc1cc(N2CCN(C)CC2)ncc1Nc1ncc(C(F)(F)F)c(NCCCNC(=O)C2CCC2)n1: 6.30 to 7.00

Moving on to the next compound.
Requested field: pIC50. Item: `CCc1cc(N2CCN(C)CC2)ccc1Nc1ncc(C2CC2)c(NCCCNC(=O)C2CCC2)n1` 4.70 to 6.30
